Test: chemical genetic growth profiling, strain panel (AID 1159580);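 note: tested at 20 µM; growth read once vehicle control cultures reached saturation at 30 °C; 1 = growth at the plate median or of vehicle wells; lower values mean less growth of the strain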
Conditions: S. cerevisiae deletion strains, growth OD, locus YGR078C, strain PAC10, active compounds read low
In all, about 5,500 compounds went through this assay and about 2,000 (36%) were called active. Roughly 18% stayed inconclusive and do not appear here. The list shows a part of the results.
measured-attribute: normalized growth
API note: the answer field is a bare number with no unit suffix.

# molecule, normalized growth
data = [
    ("c1ccc(N=Nc2ccccc2)cc1", 0.939),
    ("CCOC(=O)c1c(C)cc(O)c(C=O)c1O", 0.103),
    ("COc1ccc2c3c1O[C@H]1C[C@@H](O)C=C[C@@]31CCN(C)C2", 0.981),
    ("CC(=O)[C@H]1CC[C@H]2[C@@H]3CCC4=CC(=O)CC[C@]4(C)[C@H]3CC[C@]12C", 0.998),
    ("C[C@H]1OC(n2cc(F)c(=O)[nH]c2=O)C(O)[C@@H]1O (stereo partly specified)", 1.02),
]

Which normalized growth value belongs to COc1cccc(OC)c1C(C)(O)C(OC)OC (stereo unspecified) ?
1

Find the recorded normalized growth belonging to `C[C@@H]1O[C@@H](O[C@H]2C[C@@H](O)[C@]3(CO)[C@H]4[C@H](O)C[C@]5(C)[C@@H](C6=CC(=O)OC6)CC[C@]5(O)[C@@H]4CC[C@]3(O)C2)[C@H](O)[C@H](O)[C@H]1O` and report it.
0.985

----------
Assay: chemical genetic growth profiling, strain panel (AID 1159580);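 note: tested at 20 µM; growth read once vehicle control cultures reached saturation at 30 °C; 1 = growth at the plate median or of vehicle wells; lower values mean less growth of the strain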
Conditions: S. cerevisiae deletion strains, growth OD, locus YNR052C, strain pop2, active compounds read low
The campaign covered roughly 5,500 compounds. About 2,000 (36%) were called active. Inconclusive results (about 18%) are left out. The list shows a part of the results.
Below, each of the compounds is paired with its reported normalized growth value.

Reference set, count: 2
# compound, normalized growth
data = [
    ("COc1cc(O)c(C(=O)/C=C/c2ccccc2)c(OC)c1", "0.946 (inactive)"),
    ("ClC1=C(Cl)C2(Cl)C3C(Cl)C=CC3C1(Cl)C2(Cl)Cl (configuration not stated)", "0.964 (inactive)"),
]

What value of normalized growth has been reported for the following compound? CC(N)CCCC(C)(C)O (configuration not stated)
1 (inactive)

Given the compound `CC(C)(O)[C@@H]1[C@H]2OC(=O)[C@@H]1[C@]1(O)C[C@H]3O[C@]34C(=O)O[C@H]2[C@]14C` , what is its reported normalized growth?
1.01 (inactive)

----------
Assay: chemical genetic growth profiling, strain panel (AID 1159580);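 note: tested at 20 µM; growth read once vehicle control cultures reached saturation at 30 °C; 1 = growth at the plate median or of vehicle wells; lower values mean less growth of the strain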
Conditions: S. cerevisiae deletion strains, growth OD, locus YPR163C, strain tif3, active compounds read low
In all, about 5,500 compounds went through this assay and about 2,000 (36%) were called active. Inconclusive results (about 18%) are left out. Some of the results follow.
measured-attribute: normalized growth
Please reply with the number alone, leaving off any unit.

Take a look at these entries with their results.
# compound, normalized growth
rows = [
    ("CC1=C(C(C)O)C2=NC1C=c1[nH]c(c(C)c1C(C)O)=Cc1[nH]c(c(CCC(=O)O)c1C)C=c1[nH]c(c(C)c1CCC(=O)O)=C2 (configuration not stated)", 1.01),
    ("COc1cc2c(cc1OC)Cc1cc(OC)c(OC)cc1Cc1cc(OC)c(OC)cc1C2", 1.03),
    ("CNCCc1ccccn1", 1.02),
]

Next compound, please.
What measured normalized growth goes with CC1CC2C3CC(F)C4=CC(=O)C=CC4(C)C3(F)C(O)CC2(C)C1(O)C(=O)CO (configuration not stated) ?
1.04
